All figures here come from PubChem BioAssay (NCI).

- Measurement Notes: NCI Yeast Anticancer Drug Screen. Data for the cln2 rad14 strain (AID 165);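 note: 0% = growth equal to vehicle treated cultures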
- Conditions: S. cerevisiae cln2 rad14 strain, at 50.0 µM, active compounds read high
The panel holds about 79,000 compounds, 15% with a hit somewhere; the sample as a whole holds those more often.
The label depends only on growth inhibition: satisfied if it is at least -10%, not satisfied if it is smaller.

Compound | Qualitative Label
Clc1ccccc1C1N2CCCCC2[C@@H]2c3[nH]c4ccccc4c3CCN12 (some centres not stated) | satisfied
CN(C)CCSc1nc2ccccc2s1 | satisfied
CC(=O)CC(=O)CC(C)C.CC(=O)CC(=O)CC(C)C.[Cu] | not satisfied
Cc1cc2nnnn2c2ccccc12 | satisfied
CC1(C)CC(O)=CC(=O)N1 | satisfied
O=C(O)c1ccc(NS(=O)(=O)Cc2ccccc2)cc1 | not satisfied
O=C1OC(c2ccc([N+](=O)[O-])cc2)=N/C1=C\c1ccc(Cl)c(Cl)c1 | satisfied
O=S1c2ccccc2Sc2ccccc21 | satisfied
O=C(Cl)c1cc(-c2ccc(Cl)cc2)nc2c(-c3ccccc3)cccc12 | not satisfied
Cc1cc(OC(=O)c2ccccc2)c(C)c(C)c1OC(=O)c1ccccc1 | satisfied
CC(=O)Oc1c(/C=C/c2ccccc2)c(OC(C)=O)c2cc(Br)ccc2c1OC(C)=O | not satisfied

====

growth inhibition overview
- Measurement Notes: NCI Yeast Anticancer Drug Screen. Data for the mec2-1 strain (AID 157)
- Conditions: S. cerevisiae mec2-1 strain, at 50.0 µM, active compounds read high
This is part of a sample that, as a whole, favours compounds with a hit. Of some 79,000 tested, about 15% had one in any assay.

Compound | Unit Name | growth inhibition
CC(C)(c1ccccc1)c1ccc(Oc2ccc(C#N)c(C#N)c2)cc1 | % | -7.6
Cc1ccc(-c2nnc(C)o2)cc1 | % | -6.65
CCCC(C(=O)O)C(O)(CC(=O)O)C(=O)O (stereo not drawn) | % | -14.6
c1ccc2c(OCCSCCCCCCCCCCSCCOc3cccc4ccccc34)cccc2c1 | % | -5.55
CNc1ccc([N+](=O)[O-])cc1C(=O)OC | % | -6.1
c1ccc(C2(c3ccccc3)Oc3ccccc3O2)cc1 | % | 3.65
NC(=O)O/N=C/c1ccccn1 | % | 2.75
CC(C)(C)OC(=O)NC(Cc1ccccc1)C(=O)N[C@H]1c2ccsc2/C(=N/O)[C@H]1O (stereo partly drawn) | % | -6.95
Oc1ccc(-c2nc(-c3cccnc3)c(-c3ccc(Cl)cc3)[nH]2)cc1 | % | -19.2
COC(=O)n1c(=O)oc2ccc(Br)cc21 | % | 99.1
COC(=O)n1oc2c(Br)cc(Br)cc2c1=O | % | -10.4
COc1c(C)c(C)c(OC)c(CC(=O)O)c1C | % | -0.6
N=C1/C(=C/c2ccco2)C(=O)N=C2SC=NN12 | % | 19.1

====

- Measurement Notes: NCI Yeast Anticancer Drug Screen. Data for the mec2-1 strain (AID 157)
- Conditions: S. cerevisiae mec2-1 strain, at 50.0 µM, active compounds read high
Compounds without any hit were thinned out: in the full panel of roughly 79,000, 15% have a hit.

Compound | growth inhibition, %
Cc1cccc2c1C(=O)C(C1OC(=O)c3ccccc31)C2 (configuration not stated) | 9.75
C/C(=N\Nc1ccc2ccccc2n1)c1ccccc1O | -25.4
c1ccc(N=C(N2CCCC2)N(CCN2CCCC2)c2ccccc2)cc1 | -58.1
NS(=O)(=O)c1ccc(N=C2C=CC(=O)C=C2)cc1 | 4.5
CCC(=O)/C=C/c1cc(OC)c(OC)c(OC)c1 | -24.9
COc1ccc(/C(O)=C/c2nc3cccc([N+](=O)[O-])c3[nH]c2=O)cc1 | -14.8
CC(C)(C)OC(=O)NC1CCC(C(C)(C)C)CC1 (configuration not stated) | -2.95
O=C1C2C3CCC(C3)C2C(=O)C2C3CCC(C3)C12 (configuration not stated) | -12.7
CCN(CC)C(=O)CC(C)(C)O | 9.15
Cc1cc(C)n(C2=NCCN2)n1 | -33.7
N#Cc1nnn(-c2ccccc2)n1 | 13.5
CC(C)=CCNc1ncnc2c1c(C#N)cn2C1OC(CO)C(O)C1O (configuration not stated) | -23.7
